B1: FAM46C (parent)
chain: FDHLQNRLIATKNPEEIRGGGLLK

# Variants of: B1
# PROTOCOL_DETAILS: protein stability index of a GFP-peptide fusion (GPS, HEK-293T) (PSI 1-6); higher = more stable;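 further: lentivirally expressed fusions sorted by FACS into six bins by GFP to DsRed ratio, PSI derived from sequencing read proportions per bin multiplied by bin number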
# ASSAY_CONDITIONS: c terminus: a fixed tail appended
MEASURE_NAME: protein stability index
Would you mind answering with just the numeric figure?

Some entries whose results are on file:
RESIDUE_STRING	protein stability index
FDHLFNRLIATKNPEEIRGGGLLK [Q5F]	3.27
FDHLQNRLIATKNPREIRGGGLLK [E15R]	3.89
FDHLQNELIATKNPEEIRGGGLLK [R7E]	4.55
FDHLQNRLIATKNPEEIRGGGFLK [L22F]	2.76
FDHLQNRLIATKNPEEIRGGGLDK [L23D]	4.65

Now consider a different variant.
Task: Which measured protein stability index value corresponds to FDHLQNRLIAEKNPEEIRGGGLLK [T11E] ?
Result: 4.71
